The following compounds are shown together with reported IC50 values.
Target: P2X7 receptor (Homo sapiens, UniProt Q99572)
Construct: endogenous in cells; host or cells: THP-1 cells differentiated with LPS and IFN-γ
Assay: IL-1β release assay in differentiated THP-1 cells stimulated with BzATP (Example 9)
Format: cell-based
Conditions: four parameter logistic fit, read-out: IL-1β IC50

| compound | assay_system | IC50, nM |
| --- | --- | --- |
| O=C(Cc1ccc(Cl)c(C(F)(F)F)c1)Nc1cccc2c(=O)n([C@H]3CCNC3)ccc12 [ID 836] | P2X7 receptor (Homo sapiens, UniProt Q99572) | 16 |
| O=C(Cc1ccc(Cl)c(F)c1)Nc1cccc2c(=O)n(C3CCC3)ccc12 [ID 897] | P2X7 receptor (Homo sapiens, UniProt Q99572) | 24.5 |
| O=C(Cc1ccc(Cl)c(Cl)c1)Nc1cccc2c(=O)n(C3CC3)ccc12 [ID 876] | P2X7 receptor (Homo sapiens, UniProt Q99572) | 15 |
| O=C(Cc1ccc(Cl)cc1F)Nc1cccc2c(=O)n(C3CC3)ccc12 [ID 883] | P2X7 receptor (Homo sapiens, UniProt Q99572) | 14.7 |
| Cc1ncccc1-n1ccc2c(NC(=O)Cc3cccc(C(F)(F)F)c3F)cccc2c1=O [ID 854] | P2X7 receptor (Homo sapiens, UniProt Q99572) | 27.1 |
| CC(C(=O)Nc1cccc2c(=O)n(-c3n[nH]cc3C#N)ccc12)c1ccc(Cl)c(C(F)(F)F)c1 (centres unmarked) [ID 840] | P2X7 receptor (Homo sapiens, UniProt Q99572) | 37.6 |
| Cc1cc(-n2ccc3c(NC(=O)C(C)c4ccc(Cl)c(C(F)(F)F)c4)cccc3c2=O)n[nH]1 (centres unmarked) [ID 838] | P2X7 receptor (Homo sapiens, UniProt Q99572) | 14.9 |
| Cc1ncccc1-n1ccc2c(NC(=O)Cc3ccc(F)c(F)c3F)cccc2c1=O [ID 867] | P2X7 receptor (Homo sapiens, UniProt Q99572) | 40.5 |

----------
The following compounds are shown together with reported half-life at 1 μM values.
Assay: Half-life in human liver microsomes (HLM)
Type: in vitro ADME
Settings: pH 7.4, 1 μM compound, 0.78 mg/mL HLM, NADPH, 37° C.
recorded_metric: half-life at 1 μM

| compound | recorded_metric | test_value |
| --- | --- | --- |
| O=C(Cc1ccc(F)c(C(F)(F)F)c1)Nc1cccc2c(=O)n(C3CC3)ccc12 | half-life at 1 μM | 0.77 h |
| C[C@H](C(=O)Nc1cccc2c(=O)n(C3CNCC3O)ccc12)c1ccc(Cl)cc1 (stereo partly shown) | half-life at 1 μM | 1.54 h |
| O=C(Cc1ccc(C(F)(F)F)c(F)c1)Nc1cccc2c(=O)n(-c3cccnc3F)ccc12 | half-life at 1 μM | 1.08 h |
| O=C(Cc1ccc(Cl)c(C(F)(F)F)c1)Nc1cccc2c(=O)n(C3CCNC3)ccc12 (stereo not shown) | half-life at 1 μM | 2.88 h |

----------
Target: P2X7 receptor (Homo sapiens, UniProt Q99572)
Construct: endogenous in cells; host or cells: THP-1 cells differentiated with LPS and IFN-γ
Assay: IL-1β release assay in differentiated THP-1 cells stimulated with BzATP (Example 9)
Format: cell-based
Settings: four parameter logistic fit, read-out: IL-1β IC50
pIC50: −log10 of the molar value.
recorded_metric: pIC50

| compound | test_value |
| --- | --- |
| CC(C(=O)Nc1cccc2c(=O)n([C@@H]3CCNC3)ccc12)c1ccc(Cl)cc1 (stereo partly shown) | 6.82 |
| O=C(Cc1ccc(Cl)c(C(F)(F)F)c1)Nc1cccc2c(=O)n(-c3cccnc3F)ccc12 | 8.30 |
| O=C(Cc1ccc(C(F)(F)F)c(F)c1)Nc1cccc2c(=O)n(C3CC3)ccc12 | 8.17 |
| Cc1ncccc1-n1ccc2c(NC(=O)Cc3cc(F)c(F)c(F)c3)cccc2c1=O | 7.01 |

----------
Target: P2X7 receptor (Homo sapiens, UniProt Q99572)
Construct: endogenous in cells; host or cells: THP-1 cells differentiated with LPS and IFN-γ
Experiment: IL-1β release assay in differentiated THP-1 cells stimulated with BzATP (Example 9)
Type: cell-based
Conditions: four parameter logistic fit, read-out: IL-1β IC50
recorded_metric: IC50 (nM)

| structure_string | assay_system | test_value |
| --- | --- | --- |
| O=C(Cc1ccc(C(F)(F)F)c(F)c1)Nc1cccc2c(=O)n(C3CCC3)ccc12 | P2X7 receptor (Homo sapiens, UniProt Q99572) | 22.1 |
| Cc1ncccc1-n1ccc2c(NC(=O)Cc3ccc(F)c(Cl)c3)cccc2c1=O | P2X7 receptor (Homo sapiens, UniProt Q99572) | 75.7 |
| O=C(Cc1ccc(C(F)(F)F)c(F)c1)Nc1cccc2c(=O)n(-c3cccnc3F)ccc12 | P2X7 receptor (Homo sapiens, UniProt Q99572) | 8.72 |
| O=C(CC12CC3CC(CC(C3)C1)C2)Nc1cccc2c(=O)n(-c3cccnc3N3CCOCC3)ccc12 | P2X7 receptor (Homo sapiens, UniProt Q99572) | 0.384 |

----------
The following compounds are shown together with reported IC50 values.
Molecular target: P2X7 receptor (Homo sapiens, UniProt Q99572)
Construct: endogenous in cells; host or cells: THP-1 cells differentiated with LPS and IFN-γ
Sequence (Q99572 1-595): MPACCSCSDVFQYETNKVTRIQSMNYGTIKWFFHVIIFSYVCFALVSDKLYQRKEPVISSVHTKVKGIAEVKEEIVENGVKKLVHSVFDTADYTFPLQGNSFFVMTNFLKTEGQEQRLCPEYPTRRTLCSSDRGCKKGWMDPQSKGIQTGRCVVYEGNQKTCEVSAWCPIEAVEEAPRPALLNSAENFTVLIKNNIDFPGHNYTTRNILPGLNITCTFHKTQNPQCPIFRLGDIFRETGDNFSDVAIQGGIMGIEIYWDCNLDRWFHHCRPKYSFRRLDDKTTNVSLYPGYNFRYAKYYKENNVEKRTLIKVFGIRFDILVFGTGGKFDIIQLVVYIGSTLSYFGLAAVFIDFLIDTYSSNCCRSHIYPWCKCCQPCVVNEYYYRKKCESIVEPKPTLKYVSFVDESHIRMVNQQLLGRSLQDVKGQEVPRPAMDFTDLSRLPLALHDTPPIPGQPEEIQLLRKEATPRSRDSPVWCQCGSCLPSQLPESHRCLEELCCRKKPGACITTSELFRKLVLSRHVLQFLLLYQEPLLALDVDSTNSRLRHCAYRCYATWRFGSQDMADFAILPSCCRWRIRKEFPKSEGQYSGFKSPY
Experiment: IL-1β release assay in differentiated THP-1 cells stimulated with BzATP (Example 9)
Format: cell-based
Details: four parameter logistic fit, read-out: IL-1β IC50
recorded_metric: IC50 (nM)

| compound | unit_spec | test_value |
| --- | --- | --- |
| O=C(Cc1ccc(Cl)c(Cl)c1)Nc1cccc2c(=O)n(C3CCC3)ccc12 [ID 898] | nM | 23.6 |
| Cc1ncccc1-n1ccc2c(NC(=O)C(C)c3cccc(C(F)(F)F)c3F)cccc2c1=O (centres unmarked) [ID 862] | nM | 17.2 |
| O=C(Cc1ccc(Cl)c(Cl)c1)Nc1cccc2c(=O)n([C@@H]3CCNC3)ccc12 [ID 827] | nM | 25.5 |
| O=C(Cc1cccc(C(F)(F)F)c1F)Nc1cccc2c(=O)n(C3CN4CCC3CC4)ccc12 (centres unmarked) [ID 845] | nM | 134 |
| O=C(Cc1ccc(Cl)c(Cl)c1)Nc1cccc2c(=O)n([C@H]3CCNC3)ccc12 [ID 822] | nM | 31.3 |
| O=C(CC1CCCCCC1)Nc1cccc2c(=O)n(C3CNCC3O)ccc12 (centres unmarked) [ID 828] | nM | 6.87 |
| Cc1ncccc1-n1ccc2c(NC(=O)Cc3ccc(Cl)c(Cl)c3)cccc2c1=O [ID 869] | nM | 43.9 |
| O=C(CC12CC3CC(CC(C3)C1)C2)Nc1cccc2c(=O)n(-c3ccc(Oc4ccccc4)nc3)ccc12 [ID 711] | nM | 0.723 |

----------
The following molecules are shown together with reported half-life at 1 μM values.
Assay: Half-life in human liver microsomes (HLM)
Format: in vitro ADME
Conditions: pH 7.4, 1 μM compound, 0.78 mg/mL HLM, NADPH, 37° C.

| structure_string | half-life at 1 μM [min] |
| --- | --- |
| Cc1ccc(-n2ccc3c(NC(=O)CC45CC6CC(CC(C6)C4)C5)cccc3c2=O)cn1 | 25.2 |
| COc1ncccc1-n1ccc2c(NC(=O)Cc3ccc(Cl)c(C(F)(F)F)c3)cccc2c1=O | 13.2 |
| O=C(Cc1ccc(Cl)c(C(F)(F)F)c1)Nc1cccc2c(=O)n([C@H]3CCNC3)ccc12 | 256 |
| CC1(C)CC(CC(=O)Nc2cccc3c(=O)n([C@@H]4CCNC4)ccc23)CC(C)(C)C1 | 335 |
| Cc1ncccc1-n1ccc2c(NC(=O)Cc3ccc(Cl)c(C(F)(F)F)c3)cccc2c1=O | 29.4 |
